assay: Precipitate formation / solubility; format: physicochemical; conditions: Table 3

- compound: "O=C(O)CCc1c2ccc(=O)c(O)c-2oc2c(O)c(O)ccc12"
  Solubility: "ppt"
- compound: "O=C(O)c1c(Br)c(Br)c(Br)c(Br)c1C1c2ccc(O)cc2Oc2cc(O)ccc21"
  Solubility: "no ppt"
- compound: "CC1C2C=CC1C(c1c3ccc(=O)c(O)c-3oc3c(O)c(O)ccc13)C2C(=O)O (stereo not shown)"
  Solubility: "no ppt"
- compound: "O=C(O)/C=C/c1c2ccc(=O)c(O)c-2oc2c(O)c(O)ccc12"
  Solubility: "ppt"
- compound: "O=C(O)C1CCCCC1c1c2ccc(=O)c(O)c-2oc2c(O)c(O)ccc12 (stereo not shown)"
  Solubility: "ppt"
- compound: "Oc1cc(O)c2c(c1)OC(c1ccc(O)c(O)c1)C(OC1(c3cc(O)c(O)c(O)c3)Oc3cc(O)cc(O)c3C(O)C1O)C2 (stereo not shown)"
  Solubility: "no ppt"
- compound: "O=C(O)c1c[nH]c2cc(OCc3ccccc3)ccc2c1=O"
  Solubility: "no ppt"

----------
molecular target: ^125I labeled TGF-β1 (Homo sapiens, UniProt P01137); test: 125I labeled TGF-β1 remaining in solution after incubation with compound and centrifugation; details: third value column; 0.5 μL compound in 100 μL DMEM, 0.2% FBS overnight, 90 μL supernatant counted
Sequence (P01137 279-390 limits assumed): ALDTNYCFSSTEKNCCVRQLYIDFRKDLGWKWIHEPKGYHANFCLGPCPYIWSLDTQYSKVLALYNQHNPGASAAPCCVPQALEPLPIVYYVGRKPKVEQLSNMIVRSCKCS
Examples of compounds with documented Amount of ^125I labeled TGF-β1 in solution follow.
property label: Amount of ^125I labeled TGF-β1 in solution

- compound: "O=C(O)/C=C/c1c2ccc(=O)c(O)c-2oc2c(O)c(O)ccc12"
  value measured: 24534
- compound: "CC1C2C=CC1C(c1c3ccc(=O)c(O)c-3oc3c(O)c(O)ccc13)C2C(=O)O (centres unmarked)"
  value measured: 27960
- compound: "O=C(O)CCc1c2ccc(=O)c(O)c-2oc2c(O)c(O)ccc12"
  value measured: 20770
- compound: "O=C(O)c1c(Br)c(Br)c(Br)c(Br)c1C1c2ccc(O)cc2Oc2cc(O)ccc21"
  value measured: 29239
- compound: "O=C(O)C1CCCCC1c1c2ccc(=O)c(O)c-2oc2c(O)c(O)ccc12 (centres unmarked)"
  value measured: 20587

----------
assay: Precipitate formation / solubility; assay type: physicochemical; settings: room temperature, centrifugation at 17,000×G
property label: precipitate formation when diluted into water

- molecule: "O=C(O)/C=C/c1c2ccc(=O)c(O)c-2oc2c(O)c(O)ccc12 [NSC 119911]"
  value measured: "form precipitates"
- molecule: "O=C(O)C1CCCCC1c1c2ccc(=O)c(O)c-2oc2c(O)c(O)ccc12 (centres unmarked) [NSC 119910]"
  value measured: "form precipitates"
- molecule: "O=C(O)CCc1c2ccc(=O)c(O)c-2oc2c(O)c(O)ccc12 [NSC 119915]"
  value measured: "form precipitates"

----------
Examples of compounds with documented Amount of ^125I labeled TGF-β1 in solution follow.
molecular target: ^125I labeled TGF-β1 (Homo sapiens); experiment: 125I labeled TGF-β1 remaining in solution after incubation with compound and centrifugation; details: second value column; 0.5 μL compound in 100 μL DMEM, 0.2% FBS overnight, 90 μL supernatant counted
property label: Amount of ^125I labeled TGF-β1 in solution

- compound: "CC1C2C=CC1C(c1c3ccc(=O)c(O)c-3oc3c(O)c(O)ccc13)C2C(=O)O (centres unmarked)"
  value measured: 27614
- compound: "O=C(O)C1CCCCC1c1c2ccc(=O)c(O)c-2oc2c(O)c(O)ccc12 (centres unmarked)"
  value measured: 24924
- compound: "O=C(O)CCc1c2ccc(=O)c(O)c-2oc2c(O)c(O)ccc12"
  value measured: 25308
- compound: "O=C(O)c1c(Br)c(Br)c(Br)c(Br)c1C1c2ccc(O)cc2Oc2cc(O)ccc21"
  value measured: 27159
- compound: "O=C(O)/C=C/c1c2ccc(=O)c(O)c-2oc2c(O)c(O)ccc12"
  value measured: 25748

----------
target: UniProtKB P01137; experiment: 125I labeled TGF-β1 remaining in solution after incubation with compound and centrifugation; settings: first value column; 0.5 μL compound in 100 μL DMEM, 0.2% FBS overnight, 90 μL supernatant counted
property label: Amount of ^125I labeled TGF-β1 in solution

- molecule: "O=C(O)c1c[nH]c2cc(OCc3ccccc3)ccc2c1=O"
  value measured: 32155
- molecule: "Oc1cc(O)c2c(c1)OC(c1ccc(O)c(O)c1)C(OC1(c3cc(O)c(O)c(O)c3)Oc3cc(O)cc(O)c3C(O)C1O)C2 (centres unmarked)"
  value measured: 34567
- molecule: "O=C(O)c1c(Br)c(Br)c(Br)c(Br)c1C1c2ccc(O)cc2Oc2cc(O)ccc21"
  value measured: 38324
- molecule: "O=C(O)CCc1c2ccc(=O)c(O)c-2oc2c(O)c(O)ccc12"
  value measured: 33660
- molecule: "O=C(O)/C=C/c1c2ccc(=O)c(O)c-2oc2c(O)c(O)ccc12"
  value measured: 33990
